Measured target: T1, human neonatal Fc receptor (hFcRn) (human, UniProt P55899 24-290; P61769 21-119)
T1 construct: Biotinylated in the ELISA, Octet and yeast assays; also called human FcRn; huFcRn
T1 sequence (P55899 24-290 limits assumed, chain 1 of 2): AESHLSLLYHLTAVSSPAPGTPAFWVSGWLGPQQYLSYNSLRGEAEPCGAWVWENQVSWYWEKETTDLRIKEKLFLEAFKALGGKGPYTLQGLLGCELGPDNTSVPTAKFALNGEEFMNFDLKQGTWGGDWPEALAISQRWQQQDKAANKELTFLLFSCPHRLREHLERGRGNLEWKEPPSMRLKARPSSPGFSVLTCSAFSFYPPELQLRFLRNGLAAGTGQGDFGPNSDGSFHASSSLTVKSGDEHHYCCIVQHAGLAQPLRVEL
T1 sequence (P61769 21-119 limits assumed, chain 2 of 2): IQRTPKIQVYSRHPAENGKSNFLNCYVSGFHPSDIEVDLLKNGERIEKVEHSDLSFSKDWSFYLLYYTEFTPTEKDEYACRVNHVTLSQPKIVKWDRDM
Test: SPR competition pH 5.5
Measured pEC50 of individual entries
# pEC50: negative log10 of molar concentration; output just the value

# Binder, Quantitative readout
rows = [
    ("variant Fc-fragment Fc-5-106 (other, soluble elsewhere) EPKSCDKTHTCPPCPAPELLGGPSVFLFPPKPKDTLMISRTPEVTCVVVDVSHEDPEVKFNWYVDGVEVHNAKTKPREEQYNSTYRVVSVLTVLHQDWLNGKEYKCKVSNKALPAPIEKTISKAKGQPREPQVYTLPPSRDELTKNQVSLTCLVKGFYPSDIAVEWESNGGCVFNMFNCGGGQPENNYKTTPPVLDSDGSFFLYSKLTVDKSRWQQGNVFSCSVMHEALHNHYTQKSLSLSPGK", 8.28),
]

Lookup: Quick one: pEC50 of variant Fc-fragment Fc-5-73 (other, soluble elsewhere) EPKSCDKTHTCPPCPAPELLGGPSVFLFPPKPKDTLMISRTPEVTCVVVDVSHEDPEVKFNWYVDGVEVHNAKTKPREEQYNSTYRVVSVLTVLHQDWLNGKEYKCKVSNKALPAPIEKTISKAKGQPREPQVYTLPPSRDELTKNQVSLTCLVKGFYPSDIAVEWESNGGCAQQWHHEYCGGGQPENNYKTTPPVLDSDGSFFLYSKLTVDKSRWQQGNVFSCSVMHEALHNHYTQKSLSLSPGK ?
Found: 6.72

Lookup: Record: variant Fc-fragment Fc-5-85 (other, library L5 isolate) EPKSCDKTHTCPPCPAPELLGGPSVFLFPPKPKDTLMISRTPEVTCVVVDVSHEDPEVKFNWYVDGVEVHNAKTKPREEQYNSTYRVVSVLTVLHQDWLNGKEYKCKVSNKALPAPIEKTISKAKGQPREPQVYTLPPSRDELTKNQVSLTCLVKGFYPSDIAVEWESNGGCIGPFWWCGGGQPENNYKTTPPVLDSDGSFFLYSKLTVDKSRWQQGNVFSCSVMHEALHNHYTQKSLSLSPGK
Found: 7.74
